Source listed as patent US20250027068.

# measured target: pooled human IgG (human IgG1, 2, 3 and 4)
Reported Enzyme Activity Endpoint Assay: Fc is given for each of the following proteins.
measured endpoint: Enzyme Activity Endpoint Assay: Fc (ng/µL)

INSERT INTO results (protein, measured_endpoint, assay_result) VALUES
  ('PRT-544 (protein) MANQEIRYSKNENPNVTIKWVHGIGEPTQAEKEKIEFWWYETTTTKFFNNRKVDHLGDGNQCWAKTDSNMLHWWFVQNEENINQYIAKKNITGKINFNGEQMFDVKEGIDDNQEKEKSYIANTFRTKKAHNLSTKHKGDYIINGLSWYLYGLNNFKIAHGPTPVKKKPKFYGPALFKDVFNRGDGNTPIIVETDFKEYTKKEFEDTLSAALDSKKAIGINIYGSNVDYQHAITLWGAAFDEEENIIAIYVVDNNFKFENRIFPYGIWYQKEGRPYLFNYEINSFVKNRYVGEVITLDKGEAQWQETNLEHHHHHH', 'Enzyme Activity Endpoint Assay: Fc', 170),
  ('PRT-451 (protein) MVTSVWTKGVTPPANFRKIVDGNIAYYHAPYKANQGWYDITKTFNGKDDLLCGAATAGNMLHWWFDQNKDQIEAYLKEHPEKQKINFNGEQMFDVKEAIDTKDDQTNSKLFEYFKEKAFPYLSTKHLGVFPDHVLDMFINGYRLSLTNHGPTPVKEGSKDPRGGIFDAVFTRGDQSKLLTSRHDLKNKTLKEISDLIKQELTEGKALALSHTYANVRINHVINLWGADFDSNGNLEAIYVTDSDSNASIGMKKYFVGVNSAGKVAISAKEIEDDNIGAQVLGLFTLSTGQDIWNQTNLEHHHHHH', 'Enzyme Activity Endpoint Assay: Fc', 324),
  ('PRT-479 (protein) MITSVWTKGVTPPTDFIYGEDVLHAPYKAGQGWYDITKAFDGGDDLLCGAATAGNMLHWWFDQNKEQIENYLKKHPEKQKINFNGEQMFDVKEAIDTKDSQTNSELFNYFKEKAFPYLSTKHLGVFPDHVIDMFINGYRLSLTNHGPTPVKRQEKDPRGGIFDAVFGRGDQTKLLTNRHDLKNKTLNEISQLIKQELTEGKALGISHTYANVRINHVINLWGADFDAEGNLEAIYVTDSDSNASIGMKKYFVGVNSNGKVAISAKEIEEDNIGAQVLGLFTLSTGQKIWNKTNLEHHHHHH', 'Enzyme Activity Endpoint Assay: Fc', 481),
  ('PRT-414 (protein) MTITSVWTKGVTPPTPEDFRYNNEDVLHAPYVANQGWYDITKTFDGKDNLLCGAATAGNMLHWWFDQNKEEIERYLKKHPEKQKIIFGNQELFDVKAAIDTKDSQTNSKLFNYFRDKAFPNLSARQLGVMPDLVLDMFINGYYLNLGKTQSTDVNRPYQDKDKRGGIFDAVFTRGDQTTLLTARHDLKNKGLNEISDLIKQELTEGKALALSHTYANVRINHVINLWGADFDAEGNLIAIYVTDSDANASIGMKKYFVGVNANGKVAISAKKIEGDNIGAQVLGLFTLSTGQDIWQKLS', 'Enzyme Activity Endpoint Assay: Fc', 341);
